Values compiled from patent US20030148264A1.

Target: ERBIN PDZ-GST fusion protein (aa. 1217-1371 of SEQ ID NO:201) (human) [GST: P08515]
Sequence (P08515 whole entry, the tested form may be a part): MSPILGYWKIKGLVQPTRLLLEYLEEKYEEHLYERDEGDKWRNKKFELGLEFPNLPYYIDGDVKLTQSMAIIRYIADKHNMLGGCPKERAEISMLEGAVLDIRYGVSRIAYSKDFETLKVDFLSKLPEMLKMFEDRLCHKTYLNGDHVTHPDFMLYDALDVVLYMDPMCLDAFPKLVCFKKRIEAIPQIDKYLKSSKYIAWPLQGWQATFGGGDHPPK
Assay: competition ELISA: ERBIN PDZ-GST binding to immobilized biotin-WETWV
pIC50: −log10 of the molar value. Where no end group is shown, it is not given here.
quantity kind: pIC50

>  <binder>
H-GWETWV-OH [H1N-GWETWV]

>  <experimental value>
5.85

$$$$
>  <binder>
Ac-WETWV [Ac-WETWV]

>  <experimental value>
6.30

$$$$
>  <binder>
Ac-GWETWV [Ac-GWETWV]

>  <experimental value>
6.05

$$$$
